Reference source for all entries: the supplement of paper PMC10567573

B1: ZNF511 (parent)
chain: EPLPVERDPAAGAAPFRFVARPVR

variants of: B1; test: protein stability index of a GFP-peptide fusion (GPS, HEK-293T) (PSI 1-6); higher = more stable; conditions: c terminus: a fixed tail appended;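 note: lentivirally expressed fusions sorted by FACS into six bins by GFP to DsRed ratio, PSI derived from sequencing read proportions per bin multiplied by bin number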
The following variants are listed with their measured protein stability index values.

// worked examples, protein stability index included
V23Q : 2.95
V5F : 2.12
V5I : 2.46
A11L : 1.86
P4W : 1.58
P2Y : 2.45

Challenge: I have this variant here, R24G , and I need its recorded protein stability index.
Response given: 1.89

Challenge: Repeat with A11N
Response given: 1.75

Challenge: Another variant to check: P9H
Response given: 2.59

Challenge: Next variant: V23S
Response given: 2.41

Challenge: Now try A11G .
Response given: 1.83

Challenge: Lookup E1P
Response given: 2.23

Challenge: Then this variant: D8P
Response given: 2.4

Challenge: Now the same for R7Q
Response given: 2.65

Challenge: // repeat for V19S and report
Response given: 4.62

Challenge: Next up: P4M
Response given: 2.66

Challenge: Input P2K
Response given: 2.06

Challenge: Subsequent entry: D8Q
Response given: 2.12

Challenge: What do we get for E1S ?
Response given: 2.13

Challenge: Also need P2Q , thanks.
Response given: 1.94

Challenge: Now the variant R21G
Response given: 2.03

Challenge: // next record V19M
Response given: 4.1
